biological target: Calcium-dependent protein kinase 1 (Plasmodium falciparum (isolate 3D7)) (UniProt P62344); test: PfCDPK1 kinase inhibitors, biochemical, TCAMS library (AID 1159585); conditions: recombinant PfCDPK1, Kinase-Glo ATP depletion luminescence;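 note: inhibitors leave more ATP so luminescence rises with inhibition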
Sequence (P62344 whole entry, looked up): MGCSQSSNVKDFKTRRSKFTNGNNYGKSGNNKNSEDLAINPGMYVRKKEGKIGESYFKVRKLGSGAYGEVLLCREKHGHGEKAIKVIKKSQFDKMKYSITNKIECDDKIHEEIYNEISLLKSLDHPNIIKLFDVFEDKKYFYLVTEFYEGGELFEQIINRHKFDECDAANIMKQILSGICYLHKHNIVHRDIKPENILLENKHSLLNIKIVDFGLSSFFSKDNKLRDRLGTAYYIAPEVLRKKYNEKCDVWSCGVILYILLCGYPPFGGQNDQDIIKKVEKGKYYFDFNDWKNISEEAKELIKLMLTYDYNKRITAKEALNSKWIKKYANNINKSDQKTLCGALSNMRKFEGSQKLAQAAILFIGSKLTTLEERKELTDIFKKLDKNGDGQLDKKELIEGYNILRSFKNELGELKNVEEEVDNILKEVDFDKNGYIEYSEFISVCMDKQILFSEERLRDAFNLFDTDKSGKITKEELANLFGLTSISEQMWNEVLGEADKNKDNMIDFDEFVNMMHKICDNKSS
pIC50: −log10 of the molar value.
recorded-metric: pIC50

Previously resolved entries follow.
# compound, pIC50
rows = [
    ("Cc1ccc(Nc2nc3cc(N(C)c4ccnc(Nc5cccc(CCS(C)(=O)=O)c5)n4)ccc3n2C)cc1", 6.80),
    ("CN(C)CCN(C)Cc1nc(-c2ccc3c(Nc4ccc(Oc5ccccc5)cc4)ccnc3c2)cs1", 6.04),
    ("CCn1c(-c2nc(-c3ccnc(N4CCN(C)CC4)c3)cnc2N)nc2cc(S(C)(=O)=O)ccc21", 6.18),
]

I: COc1cc2nccc(Nc3ccc(Oc4ccccc4)cc3)c2cc1OC
II: CC(=O)Nc1cccc(Nc2nccc(Nc3ccc(Oc4ccccc4)cc3)n2)c1
III: COc1cccc(Nc2nccc(-c3c(-c4cccc(NC(=O)c5c(F)cccc5F)c4)nn4ccccc34)n2)c1
Order by pIC50, ascending. A ranking is expressed here by listing the labels in the requested order. II, I, III
(II: 6.37, I: 6.84, III: 7.06)

P: CC(C)(C)CNCC(C)(C)c1nc(-c2ccc(Cl)c(O)c2)c(-c2ccncc2)[nH]1
Q: OC1CCC(Nc2ccc3ncc(-c4ccc(Cl)cc4)n3n2)CC1 (centres undefined)
R: COc1ccc(Nc2ncc(OC)c(Nc3ccccc3C(N)=O)n2)cc1N1CCN(C)CC1
S: COc1cc(Nc2nccc(-c3c(-c4cccc(NC(=O)c5c(F)cccc5F)c4)nn4ccccc34)n2)cc(OC)c1OC
Would you mind ranking these compounds by ascending pIC50? Record the ranking as a list of labels in the requested order. R, Q, P, S
